test system: NCI-H446; assay: excess over highest single agent (ExcessHSA) synergy score, 6x6 matrix; higher = less synergy (more negative = stronger synergy); conditions: 72 h; CellTiter-Glo viability
In all, about 1,900 compounds were measured (“excess over highest single agent (ExcessHSA) synergy score, 6x6 matrix”: median about -83, lowest 2% from about -370 on). The entries come from a sample that favours the lowest values as a whole.
measured-property: excess over highest single agent
Numbers only.

Required: excess over highest single agent, one value per molecule below.
1. CC(C)(O)Cn1c(NC(=O)c2ccc(-c3cn[nH]c3)s2)nc2cc(CN3CCOCC3)ccc21 + Cc1sc2c(c1C)C(c1ccc(Cl)cc1)=N[C@@H](CC(=O)OC(C)(C)C)c1nnc(C)n1-2 [NCGC00250412-19]
2. CC1(C)CC(=O)c2c(C(F)(F)F)nn(-c3ccc(C(N)=O)c(N[C@H]4CC[C@H](OC(=O)CN)CC4)c3)c2C1 + Cc1sc2c(c1C)C(c1ccc(Cl)cc1)=N[C@@H](CC(=O)OC(C)(C)C)c1nnc(C)n1-2 [NCGC00250412-19]

Result:
[-423, -482]

Required: excess over highest single agent, one value per molecule below.
1. O=C(CCCCCCC(=O)Nc1cccnc1)NO + Cc1sc2c(c1C)C(c1ccc(Cl)cc1)=N[C@@H](CC(=O)OC(C)(C)C)c1nnc(C)n1-2 [NCGC00250412-19]
2. Cc1cn([C@@H]2C[C@@H](O)[C@H](CO)O2)c(=O)[nH]c1=O + Cc1sc2c(c1C)C(c1ccc(Cl)cc1)=N[C@@H](CC(=O)OC(C)(C)C)c1nnc(C)n1-2 [NCGC00250412-19]
3. CC(NCc1ccc2c(c1)nc(NC(=O)c1ccc(-c3cn[nH]c3)s1)n2CC(C)(C)O)C(C)(C)C (stereo not given) + Cc1sc2c(c1C)C(c1ccc(Cl)cc1)=N[C@@H](CC(=O)OC(C)(C)C)c1nnc(C)n1-2 [NCGC00250412-19]

Result:
[-276, 21.8, -312]

###

Could you please report measured excess over highest single agent for the items listed next?
system: NCI-H446; test: excess over highest single agent (ExcessHSA) synergy score, 6x6 matrix; higher = less synergy (more negative = stronger synergy); conditions: 72 h; CellTiter-Glo viability
Whole data set: some 1,900 compounds, median “excess over highest single agent (ExcessHSA) synergy score, 6x6 matrix” near -83, cut for the lowest 2% near -370. Many of the other results were omitted from the sample, so the lowest values are more common in it than they were.
Answers are plain numbers.

Use these answered entries as a reference point.
1) O=C(NOC[C@H](O)CO)c1ccc(F)c(F)c1Nc1ccc(I)cc1F + Cc1sc2c(c1C)C(c1ccc(Cl)cc1)=N[C@@H](CC(=O)OC(C)(C)C)c1nnc(C)n1-2	-276
2) COC[C@H](NC(=O)c1cnc(C)s1)C(=O)N[C@@H](COC)C(=O)N[C@@H](Cc1ccccc1)C(=O)[C@@]1(C)CO1 + Cc1sc2c(c1C)C(c1ccc(Cl)cc1)=N[C@@H](CC(=O)OC(C)(C)C)c1nnc(C)n1-2	-227
3) COc1cc(C(C)C)c(Oc2cnc(NC(CO)CO)nc2N)cc1I + Cc1sc2c(c1C)C(c1ccc(Cl)cc1)=N[C@@H](CC(=O)OC(C)(C)C)c1nnc(C)n1-2	-119

Consider the record given below.
Request: // lookup excess over highest single agent for CC(C)C[C@H](NC(=O)[C@H](CCc1ccccc1)NC(=O)CN1CCOCC1)C(=O)N[C@@H](Cc1ccccc1)C(=O)N[C@@H](CC(C)C)C(=O)[C@@]1(C)CO1 + Cc1sc2c(c1C)C(c1ccc(Cl)cc1)=N[C@@H](CC(=O)OC(C)(C)C)c1nnc(C)n1-2
Result: -521

###

test system: NCI-H446; experiment: excess over highest single agent (ExcessHSA) synergy score, 6x6 matrix; higher = less synergy (more negative = stronger synergy); conditions: 72 h; CellTiter-Glo viability
The full ranking holds about 1,900 compounds; the median of “excess over highest single agent (ExcessHSA) synergy score, 6x6 matrix” is about -83, and the lowest 2% start at about -370. Many of the other results were omitted from the sample, so the lowest values are more common in it than they were.
measured-property: excess over highest single agent
Answers are plain numbers.

Use these answered entries as a reference point.
1) c1cncc(CN2CCC(n3ncc4c(N5CCOCC5)nc(-c5ccc6[nH]ccc6c5)nc43)CC2)c1 + Cc1sc2c(c1C)C(c1ccc(Cl)cc1)=N[C@@H](CC(=O)OC(C)(C)C)c1nnc(C)n1-2	-140
2) N=C1S/C(=C\c2ccc(-c3ccc4c(c3)C(=O)NC4=O)o2)C(=O)N1c1ccc(Br)cc1 + Cc1sc2c(c1C)C(c1ccc(Cl)cc1)=N[C@@H](CC(=O)OC(C)(C)C)c1nnc(C)n1-2	122
3) Oc1ccc([C@@H]2Oc3ccc(O)cc3[C@@H]3CCC[C@@H]32)cc1 + Cc1sc2c(c1C)C(c1ccc(Cl)cc1)=N[C@@H](CC(=O)OC(C)(C)C)c1nnc(C)n1-2	-48.9
4) C#Cc1cccc(Nc2ncnc3cc(OCCOC)c(OCCO)cc23)c1 + Cc1sc2c(c1C)C(c1ccc(Cl)cc1)=N[C@@H](CC(=O)OC(C)(C)C)c1nnc(C)n1-2	-46.8
5) CC(C)n1cnc2c(NCCCCCCNC(=O)OC(C)(C)C)nc(NCCO)nc21 + Cc1sc2c(c1C)C(c1ccc(Cl)cc1)=N[C@@H](CC(=O)OC(C)(C)C)c1nnc(C)n1-2	-65.3

Required: excess over highest single agent, one value per compound below.
1. CN(C)c1ccc(-c2nc3ncc(Cl)c(N4CCN(CC(=O)Nc5nccs5)CC4)c3[nH]2)cc1 + Cc1sc2c(c1C)C(c1ccc(Cl)cc1)=N[C@@H](CC(=O)OC(C)(C)C)c1nnc(C)n1-2
2. O=C(NCc1ccccc1)[C@H](Cc1ccccc1)NC(=O)[C@H]1O[C@@H]1C(=O)NCCc1ccc(O)cc1 + Cc1sc2c(c1C)C(c1ccc(Cl)cc1)=N[C@@H](CC(=O)OC(C)(C)C)c1nnc(C)n1-2

Result:
-382
-10.6

Required: excess over highest single agent, one value per compound below.
1. Clc1cccc(-n2nnnc2NCc2ccccc2Oc2ccccn2)c1Cl + Cc1sc2c(c1C)C(c1ccc(Cl)cc1)=N[C@@H](CC(=O)OC(C)(C)C)c1nnc(C)n1-2
2. Cc1cc(CN2CCN(c3c(Br)cnc4nc(-c5ccc(N6CCN(C)CC6)cc5)[nH]c34)CC2)no1 + Cc1sc2c(c1C)C(c1ccc(Cl)cc1)=N[C@@H](CC(=O)OC(C)(C)C)c1nnc(C)n1-2
3. O=c1[nH]c(=O)n([C@H]2C[C@H](O)[C@@H](CO)O2)cc1I + Cc1sc2c(c1C)C(c1ccc(Cl)cc1)=N[C@@H](CC(=O)OC(C)(C)C)c1nnc(C)n1-2
4. CCOC(CN1C(=O)[C@](CC(=O)Nc2ccc(C)cc2)(NC(=O)Nc2ccc(C)cc2)c2ccccc21)OCC + Cc1sc2c(c1C)C(c1ccc(Cl)cc1)=N[C@@H](CC(=O)OC(C)(C)C)c1nnc(C)n1-2
5. Cn1cnc(=N)c2[nH]cnc21 + Cc1sc2c(c1C)C(c1ccc(Cl)cc1)=N[C@@H](CC(=O)OC(C)(C)C)c1nnc(C)n1-2
6. CS(=O)(=O)c1cccc(CNc2nc(Nc3ccc4c(c3)CCC(=O)N4)ncc2C(F)(F)F)c1 + Cc1sc2c(c1C)C(c1ccc(Cl)cc1)=N[C@@H](CC(=O)OC(C)(C)C)c1nnc(C)n1-2

Result:
1. -103
2. -107
3. -172
4. -94.2
5. -164
6. 58.6

Required: excess over highest single agent, one value per compound below.
1. Cn1c(=O)c(-c2c(Cl)cccc2Cl)cc2cnc(Nc3cccc(C(=O)O)c3)nc21 + Cc1sc2c(c1C)C(c1ccc(Cl)cc1)=N[C@@H](CC(=O)OC(C)(C)C)c1nnc(C)n1-2
2. CCCNC(=O)[C@H]1O[C@@H]1C(=O)N[C@H](C(=O)N1CCC[C@H]1C(=O)OC)[C@@H](C)CC + Cc1sc2c(c1C)C(c1ccc(Cl)cc1)=N[C@@H](CC(=O)OC(C)(C)C)c1nnc(C)n1-2
3. OCc1ccc(-c2ccc(-c3ccc(CO)s3)o2)s1 + Cc1sc2c(c1C)C(c1ccc(Cl)cc1)=N[C@@H](CC(=O)OC(C)(C)C)c1nnc(C)n1-2
4. Cc1cc(SCc2sc(-c3ccc(C(F)(F)F)cc3)nc2C)ccc1OCC(=O)O + Cc1sc2c(c1C)C(c1ccc(Cl)cc1)=N[C@@H](CC(=O)OC(C)(C)C)c1nnc(C)n1-2

Result:
[-131, -117, 33.9, -98.3]

Required: excess over highest single agent, one value per compound below.
1. N#C/C(=C(/N)Sc1ccc(N)cc1)c1ccccc1C(F)(F)F + Cc1sc2c(c1C)C(c1ccc(Cl)cc1)=N[C@@H](CC(=O)OC(C)(C)C)c1nnc(C)n1-2
2. Cc1cc(OCCCc2c(C(=O)O)n(Cc3cccnc3)c3c(-c4c(COc5ccc(N6CCN([S+](C)(=O)[O-])CC6)cc5)nn(C)c4C)cccc23)cc(C)c1Cl + Cc1sc2c(c1C)C(c1ccc(Cl)cc1)=N[C@@H](CC(=O)OC(C)(C)C)c1nnc(C)n1-2

Result:
1. -146
2. -31.2
